tested on: Escherichia coli TOP10; assay: shrunken log2 fold change of peptide-encoding DNA abundance (4.5 h post-induction vs induction); higher = less antimicrobial activity (less host growth inhibition); details: time post-induction: 4.5 h; library: site-saturation at positions 5, 18, 19, 20;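 further: peptides expressed intracellularly from a pBAD plasmid library in pooled LB shake-flask culture, induced with 0.3% L-arabinose, DNA abundance read by NGS, three biological replicates, DESeq2 with apeglm shrinkage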
measured.parameter: shrunken log2 fold change
Answer with a number only.

Below, each entry is followed by its recorded shrunken log2 fold change result.
RRIRSRPPRLPRPRPRPIPGPRP | -0.0336
RRIRDRPPRLPRPRPRPARPPRP | 0.569
RRIRMRPPRLPRPRPRPTKKPRP | 0.0359
RRIRRRPPRLPRPRPRPLRTPRP | 1.41
RRIRYRPPRLPRPRPRPKDHPRP | -0.487
RRIRLRPPRLPRPRPRPSIPPRP | -0.711
RRIRRRPPRLPRPRPRPQSNPRP | -0.285
RRIRFRPPRLPRPRPRPFLPPRP | -0.208

Record summary for `RRIRPRPPRLPRPRPRPASHPRP` : reported shrunken log2 fold change = 0.0473

Record summary for `RRIRFRPPRLPRPRPRPFICPRP` : reported shrunken log2 fold change = -0.65

Record summary for `RRIRDRPPRLPRPRPRPKRGPRP` : reported shrunken log2 fold change = 0.0777

Record summary for `RRIRTRPPRLPRPRPRPNMLPRP` : reported shrunken log2 fold change = -0.45

Record summary for `RRIRIRPPRLPRPRPRPVPAPRP` : reported shrunken log2 fold change = 0.0984

Record summary for `RRIRHRPPRLPRPRPRPIRCPRP` : reported shrunken log2 fold change = -0.115

Record summary for `RRIRMRPPRLPRPRPRPIRNPRP` : reported shrunken log2 fold change = 0.00101

Record summary for `RRIRFRPPRLPRPRPRPWVWPRP` : reported shrunken log2 fold change = 0.212

Record summary for `RRIRPRPPRLPRPRPRPVSLPRP` : reported shrunken log2 fold change = -0.104

Record summary for `RRIRPRPPRLPRPRPRPKCSPRP` : reported shrunken log2 fold change = -0.197

Record summary for `RRIRMRPPRLPRPRPRPMHMPRP` : reported shrunken log2 fold change = 0.0153

Record summary for `RRIRYRPPRLPRPRPRPYQPPRP` : reported shrunken log2 fold change = 0.0857

Record summary for `RRIRLRPPRLPRPRPRPNNAPRP` : reported shrunken log2 fold change = -0.221

Record summary for `RRIRHRPPRLPRPRPRPFMKPRP` : reported shrunken log2 fold change = -0.00214

Record summary for `RRIRTRPPRLPRPRPRPANMPRP` : reported shrunken log2 fold change = -0.291

Record summary for `RRIRMRPPRLPRPRPRPEDGPRP` : reported shrunken log2 fold change = 2.85
